test system: Schistosoma mansoni; assay: Antiparasitic activity against Schistosoma mansoni larva assessed as reduction of body contractility and movement at 5 ug/ml within 7 hrs; format: functional, organism-based
Activity calls are given as the source filed them. The calls are words filed in the database; no cut-off is given here.
Labels: active, inactive

> print(dat)
                                   compound  qualitative.label
1  Clc1ccc2c(NCCN3CCC4(CC3)OCC3(CCCC3)OO4)ccnc2c1             active
2  CC1(C)COC2(CCC(N[C@H]3CC[C@H](Nc4ccnc5cc(Cl)ccc45)CC3)CC2)OO1 (some centres undefined)             active
3  Clc1ccc2c(N[C@H]3CC[C@H](NC4CCC5(CC4)OCC4(CCCC4)OO5)CC3)ccnc2c1 (some centres undefined)             active
4  CN(C1CCC2(CC1)OCC(C)(C)OO2)[C@H]1CC[C@H](Nc2ccnc3cc(Cl)ccc23)CC1 (some centres undefined)           inactive
